- assay.remarks: reduction of polyQ htt aggregates in cells – imaging, exon1htt(103Q)mCFP cells, high-content imaging, primary screen (AID 483);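 also: compound exposure lasted 3 days before fixation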
- assay.context: exon1htt(103Q)mCFP cell line, aggregate imaging, at 2 µM; stronger effect = higher value
Kindly supply the reported inhibition of aggregation values for the records listed here.
Record the value in %, omitting the unit from your answer.

query: Any idea what inhibition of aggregation was measured for COc1cccc(CC(NC(C)=O)C(=O)NC2CCN(c3c4c(nc5ncnn35)CCC4)CC2)c1 (stereo unspecified) ?
result: -4.2

query: Any idea what inhibition of aggregation was measured for CCOC(=O)NC(c1ccccc1)C1CCCCC1=O (stereo unspecified) ?
result: -0.1

query: Any idea what inhibition of aggregation was measured for O=c1[nH]c2ccc(S(=O)(=O)N3CCN(C4CCCCC4)CC3)cc2[nH]c1=O ?
result: -36.5

query: Any idea what inhibition of aggregation was measured for N#Cc1c(NC(=O)CSc2nc(N)cc(=O)[nH]2)sc2c1CCCCCC2 ?
result: -2

query: Any idea what inhibition of aggregation was measured for CN(C)c1cccc(N=C2C=C(N3CCOCC3)CC(C)(C)C2)c1 ?
result: 8.4

query: Any idea what inhibition of aggregation was measured for COC(=O)c1[nH]c2c(c1C)C(=O)CC(c1cccs1)C2 (stereo unspecified) ?
result: -123

query: Any idea what inhibition of aggregation was measured for COc1nc(N2CCOCC2)nc(-n2cccc2)n1 ?
result: 3

query: Any idea what inhibition of aggregation was measured for Cc1cc(NC(=O)CSc2ccc3nnc(-c4cccc(F)c4)n3n2)no1 ?
result: 10.1

query: Any idea what inhibition of aggregation was measured for O=c1[nH]c(=O)n([C@H]2C[C@H](O)[C@@H](CO)O2)cc1F ?
result: -11.9

query: Any idea what inhibition of aggregation was measured for Cc1cc(C)nc(SCc2nnc(SCc3ccccc3Cl)o2)n1 ?
result: 16.9

query: Any idea what inhibition of aggregation was measured for O=C(CN1CCN(c2ncc(C(F)(F)F)cc2Cl)CC1)Nc1ccc2c(c1)OCO2 ?
result: 4.8

* * *

Kindly supply the reported inhibition values for the records listed here.
- assay.remarks: TLR3 IRF3 reporter activation blockers – cell-based, poly I:C stimulus, luciferase, 10K MLSCN set, primary screen (AID 602277)
- assay.context: HEK293-TLR3 RL24 IRF3 luciferase reporter, at 10 µM, stronger effect = higher value
Record the value in %, omitting the unit from your answer.

query: Any idea what inhibition was measured for Fc1ccccc1-c1nc(-c2ccccc2)no1 ?
result: -60

query: Any idea what inhibition was measured for CC(C)(C)n1ncc2c(=O)n(CC(=O)NCCc3ccccc3)cnc21 ?
result: -58.1

query: Any idea what inhibition was measured for CCNCCNC(=O)c1c(O)c2ccccc2n(CC)c1=O ?
result: 13.5

query: Any idea what inhibition was measured for O=C(O)Cn1cc2c(n1)CCCC2 ?
result: 8.73

query: Any idea what inhibition was measured for C[C@H]1C[C@H]2[C@@H]3CCC4=CC(=O)C=C[C@]4(C)[C@@]3(Cl)[C@@H](O)C[C@]2(C)[C@@]1(O)C(=O)CO ?
result: 22.6

query: Any idea what inhibition was measured for COc1ccc(S(=O)(=O)NC(CC(=O)NCc2ccco2)c2ccco2)cc1 (stereo unspecified) ?
result: 20.6

query: Any idea what inhibition was measured for N=c1c(C(=O)NCc2ccc(F)cc2)cc2c(=O)n3ccccc3nc2n1CCCN1CCOCC1 ?
result: 69.7

query: Any idea what inhibition was measured for CCOc1ccc(NC(=O)CSc2nnnn2CC(=O)O)cc1 ?
result: 14.4

query: Any idea what inhibition was measured for COc1ccc(N2C(=O)CC(N3CCN(S(=O)(=O)c4c(F)cccc4F)CC3)C2=O)cc1OC (stereo unspecified) ?
result: 12.6

query: Any idea what inhibition was measured for COCCn1c(NCc2ccc(C)cc2)nc2c1c(=O)[nH]c(=O)n2C ?
result: 13.3

query: Any idea what inhibition was measured for CCOC(=O)CC1(CC(=O)OCC)NC(=O)c2c(C)sc(C(=O)OCC)c2N1 ?
result: 17

* * *

- assay.remarks: reduction of polyQ htt aggregates in cells – imaging, exon1htt(103Q)mCFP cells, high-content imaging, primary screen (AID 483);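 also: compound exposure lasted 3 days before fixation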;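 as to nuclei count: percent of the per-plate median nuclei count of sample wells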
- assay.context: exon1htt(103Q)mCFP cell line, aggregate imaging, at 2 µM; measured here: cell count, toxicity
assay.endpoint: nuclei count (%)
Record the value in %, omitting the unit from your answer.

query: Any idea what nuclei count was measured for COC(=O)Cn1c2c(c3cc(C)ccc31)CCCC2 ?
result: 91.1

query: Any idea what nuclei count was measured for CC1CCN(S(=O)(=O)c2ccc(S(=O)(=O)NCC(=O)C(C)(C)C)cc2)CC1 ?
result: 113

query: Any idea what nuclei count was measured for COc1ccc(N2CCN(C(=O)CN3C(=O)C4CC=CCC4C3=O)CC2)cc1 (stereo unspecified) ?
result: 108

query: Any idea what nuclei count was measured for Cc1ccc2nc(CSc3nnc(-c4ccco4)n3-c3ccccc3)cc(=O)n2c1 ?
result: 115

query: Any idea what nuclei count was measured for O=c1oc(-c2ccco2)nc2ccccc12 ?
result: 92.5

query: Any idea what nuclei count was measured for CN(C(=O)c1ccno1)c1nnc(-c2cnccn2)s1 ?
result: 97.4

query: Any idea what nuclei count was measured for FC(F)(F)COc1nc(N2CCCCC2)nc(N2CCNCC2)n1 ?
result: 99.5

query: Any idea what nuclei count was measured for Cc1nn(-c2ccc(F)cc2)c2nc(N)c(C#N)c(-c3cccs3)c12 ?
result: 81.1

query: Any idea what nuclei count was measured for CC(C)Oc1cccc(-c2cc(C(=O)N3CCN(S(C)(=O)=O)CC3)c3ccccc3n2)c1 ?
result: 108

query: Any idea what nuclei count was measured for COc1cc(-c2nnc(SCC(=O)c3cc(C)n(CC4CCCO4)c3C)o2)cc(OC)c1OC (stereo unspecified) ?
result: 94.5

query: Any idea what nuclei count was measured for COc1cccc(OC)c1C(=O)Nc1ccccc1N1CCCC1 ?
result: 92.9

* * *

- assay.remarks: reduction of polyQ htt aggregates in cells – imaging, exon1htt(103Q)mCFP cells, high-content imaging, primary screen (AID 483);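 also: compound exposure lasted 3 days before fixation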
- assay.context: exon1htt(103Q)mCFP cell line, aggregate imaging, at 2 µM; stronger effect = higher value
assay.endpoint: inhibition of aggregation (%)
Record the value in %, omitting the unit from your answer.

query: Any idea what inhibition of aggregation was measured for ON1C2CCCCC2N(O)C1c1c(F)c(F)c(F)c(F)c1F (centres undefined) ?
result: -6.9

query: Any idea what inhibition of aggregation was measured for CN(Cc1nc(-c2ccncc2)no1)S(=O)(=O)c1ccc(Br)cc1 ?
result: -5.7

query: Any idea what inhibition of aggregation was measured for C=C(C)c1cccc(C(C)(C)NC(=O)Nc2ncccn2)c1 ?
result: 1.6

query: Any idea what inhibition of aggregation was measured for COc1ccccc1-c1noc(-c2cccnc2)n1 ?
result: -5.9

query: Any idea what inhibition of aggregation was measured for CCOC(=O)c1ccc(COC(=O)CCc2nc3ccccc3[nH]c2=O)o1 ?
result: -18.4

query: Any idea what inhibition of aggregation was measured for CCN1CCN(Cc2c(C)[nH]c3ccc(OC)cc3c2=O)CC1 ?
result: -19.4

query: Any idea what inhibition of aggregation was measured for c1cncc(-c2nnc(-c3ccco3)o2)c1 ?
result: -27

query: Any idea what inhibition of aggregation was measured for Cc1ccc(C(=O)CSc2nnc(CNc3ccc(C)cc3C)o2)cc1 ?
result: 19.7

query: Any idea what inhibition of aggregation was measured for CCOc1ccc(N2CC(C(=O)Nc3ccc(F)cc3F)CC2=O)cc1 (centres undefined) ?
result: 7.4

query: Any idea what inhibition of aggregation was measured for CCCCc1ccc(NC(=O)N[C@H](C(=O)O)C(C)CC)cc1 (some centres undefined) ?
result: -22.8

query: Any idea what inhibition of aggregation was measured for CCn1cc(C(=O)NCCN(C)CCc2ccccc2)c(=O)c2cc(S(=O)(=O)N(C)C)ccc21 ?
result: -8.6

query: Any idea what inhibition of aggregation was measured for Cc1cc(-c2ccccc2)nc2cc(C(N)=O)nn12 ?
result: 14.7

query: Any idea what inhibition of aggregation was measured for COc1cccc(N2CCN(Cc3nc(N)nc(Nc4ccccc4OC)n3)CC2)c1 ?
result: -8.8

query: Any idea what inhibition of aggregation was measured for c1csc(-c2nc3nc4ccccc4nc3n2Cc2ccc3c(c2)OCO3)c1 ?
result: -18.6

query: Any idea what inhibition of aggregation was measured for Nc1nnc(SCCOc2ccccc2)s1 ?
result: 2.2

query: Any idea what inhibition of aggregation was measured for COC(=O)CCCCCNc1ccc(C(=O)OC)cc1N ?
result: 12.1

query: Any idea what inhibition of aggregation was measured for COc1ccccc1-c1c(C)nn2c(C)c(C(C)=O)cnc12 ?
result: 13.5

query: Any idea what inhibition of aggregation was measured for COc1ccccc1NC(=O)CC(NCc1ccccc1)C(=O)O (centres undefined) ?
result: -9.7

query: Any idea what inhibition of aggregation was measured for N#CC1=C(N)N(c2ccccc2)C2=C(C(=O)CCC2)C1c1cccs1 (centres undefined) ?
result: 3.8

query: Any idea what inhibition of aggregation was measured for CCOc1ccc2[nH]c(=O)c(CN(Cc3ccccc3)C(=O)N3CCCC3)cc2c1 ?
result: 14.8

query: Any idea what inhibition of aggregation was measured for CCc1nnc(NC(=O)c2cccc(C(=O)Nc3nnc(CC)s3)n2)s1 ?
result: 13.6

query: Any idea what inhibition of aggregation was measured for c1cnn(-c2cc(N3CCOCC3)ncn2)c1 ?
result: 20.4

query: Any idea what inhibition of aggregation was measured for COc1ccc(-c2nc(N)nc(C)c2Oc2ccccc2Br)c(O)c1 ?
result: -14

query: Any idea what inhibition of aggregation was measured for O=C1CCc2cc(OCCCCc3nnnn3C3CCCCC3)ccc2N1 ?
result: 14.7
